Recorded viability, T/C values for a group of compounds are listed next.
System: 935938-334-R-J1-PDC complex spheroid viability;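 further: spheroids exposed to drugs for seven days before viability read; 100% = DMSO vehicle control wells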
test.summary: Anticancer human tumor 935938-334-R-J1-PDC patient-derived small intestine adenocarcinoma cell line growth inhibition [POLQ]
condition.description: second compound 1 µM; first compound 0.1 µM; stronger effect = lower value
readout.name: viability, T/C (%)

- compound: "Cn1ncnc1[C@H]1c2n[nH]c(=O)c3cc(F)cc(c23)N[C@@H]1c1ccc(F)cc1 + Nc1ccc(C#CCN(C(=O)Cc2ncc(C(F)(F)F)cc2C(F)(F)F)c2ccc(F)cc2)nn1"
  tested.on: "935938-334-R-J1-PDC complex spheroid viability"
  readout.name: "viability, T/C"
  test.result: 85.1
- compound: "CC1COCCN1c1cc(C2(S(C)(=N)=O)CC2)nc(-c2ccnc3[nH]ccc23)n1 (stereo not given) + COC1C(OC(N)=O)C(O)C(Oc2ccc3c(O)c(NC(=O)c4ccc(O)c(CC=C(C)C)c4)c(=O)oc3c2C)OC1(C)C"
  tested.on: "935938-334-R-J1-PDC complex spheroid viability"
  readout.name: "viability, T/C"
  test.result: 80.3
- compound: "O=C(c1cc(Cc2n[nH]c(=O)c3ccccc23)ccc1F)N1CCN(C(=O)C2CC2)CC1 + COC1C(OC(N)=O)C(O)C(Oc2ccc3c(O)c(NC(=O)c4ccc(O)c(CC=C(C)C)c4)c(=O)oc3c2C)OC1(C)C"
  tested.on: "935938-334-R-J1-PDC complex spheroid viability"
  readout.name: "viability, T/C"
  test.result: 84.6
- compound: "O=C(Nc1ccc(O)c(NS(=O)(=O)c2ccc(F)cc2)c1)c1ccc(-c2ccccc2)cc1 + COC1C(OC(N)=O)C(O)C(Oc2ccc3c(O)c(NC(=O)c4ccc(O)c(CC=C(C)C)c4)c(=O)oc3c2C)OC1(C)C"
  tested.on: "935938-334-R-J1-PDC complex spheroid viability"
  readout.name: "viability, T/C"
  test.result: 109
- compound: "C=CCn1c(=O)c2cnc(Nc3ccc(N4CCN(C)CC4)cc3)nc2n1-c1cccc(C(C)(C)O)n1 + COC1C(OC(N)=O)C(O)C(Oc2ccc3c(O)c(NC(=O)c4ccc(O)c(CC=C(C)C)c4)c(=O)oc3c2C)OC1(C)C"
  tested.on: "935938-334-R-J1-PDC complex spheroid viability"
  readout.name: "viability, T/C"
  test.result: 86.3

Data origin: PubChem BioAssay AID1963829
